Kindly state zone of inhibition at 50 µg/disc for each of the entries shown.
system: marine bacteria strain S28; assay: disc inhibition assay, strain S28; format: cell-based, Arthrobacter protophormial; conditions: Arthrobacter, S28, 24 h

Previously resolved entries follow.
# query: zone of inhibition at 50 µg/disc of entry COC1(c2ccc(Cl)cc2)CC[N+](C)(CCC(C(=O)N(C)C)(c2ccccc2)c2ccccc2)CC1 (stereo not shown) [Compound 5.2, N,O-dimethyl Loperamide]
5 to 10 mm

# query: zone of inhibition at 50 µg/disc of entry CN(C)C(=O)C(CC[N+]1(C)CCC(O)(c2ccc(Cl)cc2)CC1)(c1ccccc1)c1ccccc1 (stereo not shown)
5 to 10 mm

# query: zone of inhibition at 50 µg/disc of entry CN(C)C(=O)C(CCN1CCC(O)(c2ccc(Cl)cc2)CC1)(c1ccccc1)c1ccccc1 [LOP, loperamide, reference compound]
5 to 10 mm

New cases:
# query: zone of inhibition at 50 µg/disc of entry CC(=O)OC1(c2ccc(Cl)cc2)CCN(CCC(C(=O)N(C)C)(c2ccccc2)c2ccccc2)CC1
2 to 5 mm

* * *

system: marine bacteria strain S9; assay: disc inhibition assay, strain S9; format: cell-based, Bacillus algicola; settings: Guptibacillus algicola, S9, 24 h
property_name: zone of inhibition at 50 µg/disc

Previously resolved entries follow.
# query: zone of inhibition at 50 µg/disc of entry COC1(c2ccc(Cl)cc2)CC[N+](C)(CCC(C(=O)N(C)C)(c2ccccc2)c2ccccc2)CC1 (centres unmarked) [Compound 5.2, N,O-dimethyl Loperamide]
5 to 10 mm

# query: zone of inhibition at 50 µg/disc of entry CN(C)C(=O)C(CCN1CCC(O)(c2ccc(Cl)cc2)CC1)(c1ccccc1)c1ccccc1 [LOP, loperamide, reference compound]
5 to 10 mm

# query: zone of inhibition at 50 µg/disc of entry CN(C)C(=O)C(CCN1CCCCC1)(c1ccccc1)c1ccccc1 [Compound 9.1]
2 to 5 mm

# query: zone of inhibition at 50 µg/disc of entry CC(=O)OC1(c2ccc(Cl)cc2)CCN(CCC(C(=O)N(C)C)(c2ccccc2)c2ccccc2)CC1 [Compound 5.3]
2 to 5 mm

Then there is this compound:
# query: zone of inhibition at 50 µg/disc of entry CN(C)C(=O)C(CC[N+]1(C)CCC(O)(c2ccc(Cl)cc2)CC1)(c1ccccc1)c1ccccc1 (centres unmarked) [Compound 4.7]
5 to 10 mm

* * *

Kindly state zone of inhibition at 50 µg/disc for each of the entries shown.
Test system: marine bacteria strain S4
Assay: disc inhibition assay, strain S4
Assay type: cell-based, Bacillus algicola
Conditions: Guptibacillus algicola, S4, 24 h; strain 4, 50 μg of compound per disc; read-out: zone of inhibition
Procedure: The disc inhibition assay was used. This assay is a conventional method routinely used for screening antibacterial compounds to determine degree of susceptibility to antibacterial compounds. The diameter of the zone of inhibition is proportional to the degree of susceptibility of the bacterial strain. […] For all disk inhibition assays, bacterial cultures were grown in marine broth (Pronadisa #1217.00). […] The diameter of any zone of clearing or inhibition was measured using Vernier calipers. […]

Previously resolved entries follow.
# query: zone of inhibition at 50 µg/disc of entry C=CCCCCC(CCCC)C(=O)N1CCCCC1 (stereo not drawn)
5 to 10 mm

# query: zone of inhibition at 50 µg/disc of entry C=CCCCCC(C(=O)N1CCCCC1)c1ccccc1 (stereo not drawn)
2 to 5 mm

# query: zone of inhibition at 50 µg/disc of entry CCCCC(C(=O)N1CCCCC1)c1ccccc1 (stereo not drawn)
2 to 5 mm

# query: zone of inhibition at 50 µg/disc of entry O=C(C(c1ccccc1)c1ccccc1)N1CCCCC1
2 to 5 mm

# query: zone of inhibition at 50 µg/disc of entry CCCCC(CCCC)C(=O)N1CCCCC1
2 to 5 mm

Then there is this compound:
# query: zone of inhibition at 50 µg/disc of entry OC1(c2ccc(Cl)cc2)CCNCC1
2 to 5 mm
